Parameter: IC50. Scope: all listed entries.
Test system: BV-173 cells (bcr-abl+ chronic myeloid leukemia)
protocol-details: Mosmann MTT cell viability test, BV-173
Type: cell-based, human
condition-context: Homo sapiens; BV-173, MTT, 72 h exposure, ± standard deviation
value-type: IC50 (nM)

molecule	study-target	experimental-value
COc1ccc(C(=O)NN=Cc2ccc(OC)cc2O)cc1	BV-173 cells (bcr-abl+ chronic myeloid leukemia)	1400
COc1cccc(C(=O)NN=Cc2cccc(OC)c2O)c1	BV-173 cells (bcr-abl+ chronic myeloid leukemia)	2700
COc1ccccc1C(=O)NN=Cc1cccc(OC)c1O	BV-173 cells (bcr-abl+ chronic myeloid leukemia)	33500
COc1ccc(C(=O)NN=Cc2cccc(OC)c2O)cc1	BV-173 cells (bcr-abl+ chronic myeloid leukemia)	2700
COc1cccc(C(=O)NN=Cc2ccc(OC)cc2O)c1	BV-173 cells (bcr-abl+ chronic myeloid leukemia)	2200

====

Tested on: MCF-7 cells (breast ER+ adenocarcinoma)
protocol-details: Mosmann MTT cell viability test, MCF-7
Format: cell-based, human
condition-context: Homo sapiens, MCF7; MCF-7, MTT, 72 h exposure, ± standard deviation
pIC50: −log10 of the molar value.

molecule	pIC50
COc1ccc(C(=O)NN=Cc2ccc(OC)cc2O)cc1	4.67
COc1cccc(C(=O)NN=Cc2ccc(OC)cc2O)c1	4.63
COc1ccc(C(=O)NN=Cc2cccc(OC)c2O)cc1	4.44
COc1cccc(C(=O)NN=Cc2cccc(OC)c2O)c1	4.59
COc1ccccc1C(=O)NN=Cc1cccc(OC)c1O	4.52

====

Parameter: pIC50. Scope: all listed entries.
Test system: K-562 cells (bcr-abl+ chronic myeloid leukemia)
protocol-details: Mosmann MTT cell viability test, K-562
Format: cell-based, human
condition-context: Homo sapiens, K562; K-562, MTT, 72 h exposure, ± standard deviation
pIC50: −log10 of the molar value.
value-type: pIC50

molecule	value-type	experimental-value
COc1cccc(C(=O)NN=Cc2cccc(OC)c2O)c1 [Compound 2]	pIC50	5.68
COc1cccc(C(=O)NN=Cc2ccc(OC)cc2O)c1 [Compound 4]	pIC50	5.80
COc1ccc(C(=O)NN=Cc2ccc(OC)cc2O)cc1 [Compound 5]	pIC50	5.82
COc1ccccc1C(=O)NN=Cc1cccc(OC)c1O [Compound 1]	pIC50	4.69
COc1ccc(C(=O)NN=Cc2cccc(OC)c2O)cc1 [Compound 3]	pIC50	5.55

====

Tested on: SKW-3 cells (T-cell leukemia)
protocol-details: Mosmann MTT cell viability test, SKW-3
Format: cell-based, human
condition-context: Homo sapiens, SKW3, 72 h, SKW-3, MTT, 72 h exposure, ± standard deviation

molecule	study-target	value-prefix	IC50 [nM]
COc1cccc(C(=O)NN=Cc2ccc(OC)cc2O)c1	SKW-3 cells (T-cell leukemia)	<	1000
COc1ccc(C(=O)NN=Cc2cccc(OC)c2O)cc1	SKW-3 cells (T-cell leukemia)	=	2700
COc1ccc(C(=O)NN=Cc2ccc(OC)cc2O)cc1	SKW-3 cells (T-cell leukemia)	<	1000
COc1cccc(C(=O)NN=Cc2cccc(OC)c2O)c1	SKW-3 cells (T-cell leukemia)	=	1400
COc1ccccc1C(=O)NN=Cc1cccc(OC)c1O	SKW-3 cells (T-cell leukemia)	=	4300
